testedTarget: UniProt O75460
Sequence (O75460 19-977): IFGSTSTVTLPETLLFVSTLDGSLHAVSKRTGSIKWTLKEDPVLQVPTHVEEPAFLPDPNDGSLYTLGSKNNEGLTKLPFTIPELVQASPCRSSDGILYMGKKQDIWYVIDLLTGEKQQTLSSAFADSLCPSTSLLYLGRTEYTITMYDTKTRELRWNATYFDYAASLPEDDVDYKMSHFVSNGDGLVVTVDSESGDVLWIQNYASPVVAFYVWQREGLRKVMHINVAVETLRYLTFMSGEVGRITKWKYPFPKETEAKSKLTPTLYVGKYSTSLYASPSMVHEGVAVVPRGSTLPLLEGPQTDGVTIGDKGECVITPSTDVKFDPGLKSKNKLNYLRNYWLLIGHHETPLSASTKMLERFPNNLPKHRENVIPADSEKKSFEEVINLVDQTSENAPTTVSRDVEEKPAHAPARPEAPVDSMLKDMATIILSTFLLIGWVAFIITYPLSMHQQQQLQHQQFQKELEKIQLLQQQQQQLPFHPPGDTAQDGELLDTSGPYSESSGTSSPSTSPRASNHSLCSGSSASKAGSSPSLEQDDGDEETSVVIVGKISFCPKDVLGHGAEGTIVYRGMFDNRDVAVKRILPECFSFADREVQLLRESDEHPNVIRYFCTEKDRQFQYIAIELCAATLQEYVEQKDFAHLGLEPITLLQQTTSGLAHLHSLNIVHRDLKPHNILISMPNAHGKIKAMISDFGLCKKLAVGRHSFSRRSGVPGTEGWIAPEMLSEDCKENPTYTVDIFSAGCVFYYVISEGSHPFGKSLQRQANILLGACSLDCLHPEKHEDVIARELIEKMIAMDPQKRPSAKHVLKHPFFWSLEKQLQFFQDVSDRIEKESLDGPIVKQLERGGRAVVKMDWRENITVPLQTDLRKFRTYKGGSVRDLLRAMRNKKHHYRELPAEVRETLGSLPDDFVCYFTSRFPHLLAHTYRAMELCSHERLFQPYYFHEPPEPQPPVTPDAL
measurementType: IC50

IN: Check UniProt O75460 data and give IC50 for Cc1cc(=O)oc2c(C=O)c(O)ccc12 .
OUT: 31.2 µM

The reported measurements were obtained from paper PMC7968329.
